System: ES-2
assay-info: Cell viability assay (ATPlite)
Type: cell-based
conditions: Homo sapiens; ES-2 cell line, 72 hours incubation
measured-endpoint: pIC50
Please report pIC50 as the negative decimal logarithm of the molar concentration, giving only the number.

Query string: Quick one: pIC50 of O=C(c1ccc(Oc2ccccc2)cc1Cl)c1c[nH]c2ncnc(N[C@@H]3CC[C@@H](CO)OC3)c12 [nemtabrutinib] ?
Result string: 6.03

* * *

target-system: MAP4K2 (Homo sapiens, UniProt Q12851)
Construct: purchased Carna Biosciences
Sequence (Q12851 1-820): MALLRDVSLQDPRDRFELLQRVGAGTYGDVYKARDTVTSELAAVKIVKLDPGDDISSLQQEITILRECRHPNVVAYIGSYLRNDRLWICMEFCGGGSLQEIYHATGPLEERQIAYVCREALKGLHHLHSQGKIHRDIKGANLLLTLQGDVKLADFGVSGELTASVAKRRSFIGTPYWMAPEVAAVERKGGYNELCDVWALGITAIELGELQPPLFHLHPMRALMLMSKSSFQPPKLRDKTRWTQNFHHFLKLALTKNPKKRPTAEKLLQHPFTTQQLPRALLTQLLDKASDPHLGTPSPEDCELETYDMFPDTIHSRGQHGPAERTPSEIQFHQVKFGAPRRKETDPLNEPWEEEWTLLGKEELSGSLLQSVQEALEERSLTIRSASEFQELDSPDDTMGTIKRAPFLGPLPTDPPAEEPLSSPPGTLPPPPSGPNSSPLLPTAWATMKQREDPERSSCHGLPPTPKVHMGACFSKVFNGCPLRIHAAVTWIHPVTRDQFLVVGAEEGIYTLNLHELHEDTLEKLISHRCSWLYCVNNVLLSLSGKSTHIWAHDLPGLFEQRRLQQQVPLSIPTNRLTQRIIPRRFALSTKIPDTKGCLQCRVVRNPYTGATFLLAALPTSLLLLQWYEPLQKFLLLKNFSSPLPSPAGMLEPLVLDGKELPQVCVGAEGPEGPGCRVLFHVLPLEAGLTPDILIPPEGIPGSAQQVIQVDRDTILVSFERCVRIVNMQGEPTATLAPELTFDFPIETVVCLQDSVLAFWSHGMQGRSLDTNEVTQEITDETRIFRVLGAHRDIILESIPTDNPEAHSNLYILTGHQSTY
assay-info: Kinase panel profiling at 1 µmol/L (mobility shift assay, Carna)
Assay type: biochemical
conditions: 1 µmol/L of BTK inhibitor
measured-endpoint: Percentage inhibition of kinase enzyme activity (%)
The reply should contain only the number, in %.

Reference set, count: 3
test-smiles: CC#CC(=O)N1CCC[C@H]1c1nc(-c2ccc(C(=O)Nc3ccccn3)cc2)c2c(N)nccn12
observed-result: -11.21
//
test-smiles: O=C(c1ccc(Oc2ccccc2)cc1Cl)c1c[nH]c2ncnc(N[C@@H]3CC[C@@H](CO)OC3)c12
observed-result: 78.03
//
test-smiles: COc1ccc(F)cc1C(=O)NCc1ccc(-c2nn([C@@H](C)C(F)(F)F)c(N)c2C(N)=O)cc1
observed-result: 3.56

Query string: Sample C=CC(=O)N1CCC[C@@H](n2nc(-c3ccc(Oc4ccccc4)cc3)c3c(N)ncnc32)C1 — what was its Percentage inhibition of kinase enzyme activity?
Result string: -4.43

* * *

target-system: FGFR4 (Homo sapiens, UniProt P22455)
Sequence (P22455 22-802): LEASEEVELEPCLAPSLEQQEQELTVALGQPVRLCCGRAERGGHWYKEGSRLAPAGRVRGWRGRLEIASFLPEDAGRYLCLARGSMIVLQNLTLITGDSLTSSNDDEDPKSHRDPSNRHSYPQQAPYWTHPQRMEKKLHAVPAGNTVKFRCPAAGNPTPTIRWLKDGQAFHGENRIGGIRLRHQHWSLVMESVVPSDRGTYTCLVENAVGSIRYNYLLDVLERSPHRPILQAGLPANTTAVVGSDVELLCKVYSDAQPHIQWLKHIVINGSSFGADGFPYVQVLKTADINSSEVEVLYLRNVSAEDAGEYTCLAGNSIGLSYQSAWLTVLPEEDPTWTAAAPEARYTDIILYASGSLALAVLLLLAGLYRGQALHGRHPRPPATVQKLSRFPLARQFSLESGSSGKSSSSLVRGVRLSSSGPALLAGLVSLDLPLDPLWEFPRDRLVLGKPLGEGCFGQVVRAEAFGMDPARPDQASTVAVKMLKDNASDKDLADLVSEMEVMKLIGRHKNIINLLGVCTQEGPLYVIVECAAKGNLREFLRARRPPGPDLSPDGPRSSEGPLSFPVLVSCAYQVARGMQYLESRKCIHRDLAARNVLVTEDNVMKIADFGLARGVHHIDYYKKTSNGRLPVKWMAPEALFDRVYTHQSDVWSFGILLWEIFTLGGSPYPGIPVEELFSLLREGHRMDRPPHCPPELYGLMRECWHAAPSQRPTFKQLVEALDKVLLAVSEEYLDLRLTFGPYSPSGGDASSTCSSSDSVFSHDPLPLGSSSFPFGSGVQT
assay-info: Kinase enzyme activity assay (mobility shift assay, Carna)
conditions: FGFR4; 1 µmol/L of BTK inhibitor
measured-endpoint: Percentage inhibition of kinase enzyme activity (%)
Numbers only; they are read as %.

molecule: O=C(c1ccc(Oc2ccccc2)cc1Cl)c1c[nH]c2ncnc(N[C@@H]3CC[C@@H](CO)OC3)c12 [nemtabrutinib]
u: %
observed-result: 1.97

molecule: CC#CC(=O)N1CCC[C@H]1c1nc(-c2ccc(C(=O)Nc3ccccn3)cc2)c2c(N)nccn12 [acalabrutinib]
u: %
observed-result: -8.97

molecule: COc1ccc(F)cc1C(=O)NCc1ccc(-c2nn([C@@H](C)C(F)(F)F)c(N)c2C(N)=O)cc1 [pirtobrutinib]
u: %
observed-result: 1.27

molecule: C=CC(=O)N1CCC([C@@H]2CCNc3c(C(N)=O)c(-c4ccc(Oc5ccccc5)cc4)nn32)CC1 [zanubrutinib]
u: %
observed-result: 0.81

// next entry
Query string: Dear colleague, I am looking for the recorded Percentage inhibition of kinase enzyme activity of the following molecule: C=CC(=O)N1CCC[C@@H](n2nc(-c3ccc(Oc4ccccc4)cc3)c3c(N)ncnc32)C1 [ibrutinib]
Result string: 36.91

* * *

target-system: HGK (Homo sapiens)
Construct: purchased Carna Biosciences
Sequence (O95819 whole entry): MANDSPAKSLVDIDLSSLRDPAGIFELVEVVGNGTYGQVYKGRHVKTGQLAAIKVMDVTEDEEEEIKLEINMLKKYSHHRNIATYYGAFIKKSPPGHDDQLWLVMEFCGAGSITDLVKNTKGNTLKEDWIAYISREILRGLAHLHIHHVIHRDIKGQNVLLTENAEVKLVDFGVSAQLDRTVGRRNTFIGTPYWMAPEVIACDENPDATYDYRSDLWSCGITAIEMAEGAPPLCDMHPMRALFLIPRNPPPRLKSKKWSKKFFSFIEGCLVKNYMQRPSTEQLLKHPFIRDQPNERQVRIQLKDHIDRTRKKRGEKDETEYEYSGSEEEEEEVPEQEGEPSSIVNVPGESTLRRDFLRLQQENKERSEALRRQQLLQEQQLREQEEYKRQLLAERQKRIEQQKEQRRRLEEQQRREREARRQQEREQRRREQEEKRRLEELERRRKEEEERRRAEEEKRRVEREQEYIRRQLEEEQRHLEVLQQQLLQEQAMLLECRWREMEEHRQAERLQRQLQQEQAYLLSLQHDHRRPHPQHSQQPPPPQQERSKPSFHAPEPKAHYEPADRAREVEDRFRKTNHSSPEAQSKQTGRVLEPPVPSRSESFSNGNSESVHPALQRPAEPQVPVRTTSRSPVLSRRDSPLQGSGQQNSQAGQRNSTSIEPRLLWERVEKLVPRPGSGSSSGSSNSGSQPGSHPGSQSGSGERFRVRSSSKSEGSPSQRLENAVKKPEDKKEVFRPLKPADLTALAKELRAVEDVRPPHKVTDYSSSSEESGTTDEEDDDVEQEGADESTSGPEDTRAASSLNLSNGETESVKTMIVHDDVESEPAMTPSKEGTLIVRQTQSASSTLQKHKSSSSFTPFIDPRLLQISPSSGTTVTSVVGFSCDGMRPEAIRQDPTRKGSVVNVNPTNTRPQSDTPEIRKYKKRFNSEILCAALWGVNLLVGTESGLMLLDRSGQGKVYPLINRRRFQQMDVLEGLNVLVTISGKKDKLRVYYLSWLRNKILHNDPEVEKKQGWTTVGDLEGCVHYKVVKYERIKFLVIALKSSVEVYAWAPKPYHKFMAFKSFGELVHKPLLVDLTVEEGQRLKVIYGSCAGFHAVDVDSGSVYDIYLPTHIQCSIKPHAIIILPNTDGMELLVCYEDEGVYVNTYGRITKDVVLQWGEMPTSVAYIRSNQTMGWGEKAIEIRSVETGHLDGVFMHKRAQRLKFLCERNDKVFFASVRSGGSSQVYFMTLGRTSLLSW
assay-info: Kinase panel profiling at 1 µmol/L (mobility shift assay, Carna)
Type: biochemical
conditions: 1 µmol/L of BTK inhibitor
# key: entry, value: Percentage inhibition of kinase enzyme activity
Just the number in %, nothing appended.

Consider the worked cases shown below.
molecule: CC#CC(=O)N1CCC[C@H]1c1nc(-c2ccc(C(=O)Nc3ccccn3)cc2)c2c(N)nccn12 [acalabrutinib]
u: %
observed-result: -1.42
//
molecule: C=CC(=O)N1CCC[C@@H](n2nc(-c3ccc(Oc4ccccc4)cc3)c3c(N)ncnc32)C1 [ibrutinib]
u: %
observed-result: -0.0249
//
molecule: COc1ccc(F)cc1C(=O)NCc1ccc(-c2nn([C@@H](C)C(F)(F)F)c(N)c2C(N)=O)cc1 [pirtobrutinib]
u: %
observed-result: 3.60

Query string: # input molecule: O=C(c1ccc(Oc2ccccc2)cc1Cl)c1c[nH]c2ncnc(N[C@@H]3CC[C@@H](CO)OC3)c12 [nemtabrutinib] ; wanted: its Percentage inhibition of kinase enzyme activity
Result string: 72.78

* * *

target-system: GSK3β (Homo sapiens)
Construct: purchased Carna Biosciences
Sequence (P49841 whole entry): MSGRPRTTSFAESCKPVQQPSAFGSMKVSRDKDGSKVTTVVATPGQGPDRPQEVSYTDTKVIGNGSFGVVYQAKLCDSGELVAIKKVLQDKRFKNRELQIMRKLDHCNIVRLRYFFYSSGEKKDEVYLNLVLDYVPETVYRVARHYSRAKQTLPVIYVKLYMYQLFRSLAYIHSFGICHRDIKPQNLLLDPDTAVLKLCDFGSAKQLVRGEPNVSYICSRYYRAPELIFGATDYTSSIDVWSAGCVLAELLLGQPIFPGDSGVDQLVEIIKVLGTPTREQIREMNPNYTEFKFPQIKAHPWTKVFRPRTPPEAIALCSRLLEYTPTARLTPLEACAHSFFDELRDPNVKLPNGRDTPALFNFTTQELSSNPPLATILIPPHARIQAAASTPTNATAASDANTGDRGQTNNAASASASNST
assay-info: Kinase panel profiling at 1 µmol/L (mobility shift assay, Carna)
Assay type: biochemical
conditions: 1 µmol/L of BTK inhibitor
measured-endpoint: Percentage inhibition of kinase enzyme activity (%)
The reply should contain only the number, in %.

test-smiles: O=C(c1ccc(Oc2ccccc2)cc1Cl)c1c[nH]c2ncnc(N[C@@H]3CC[C@@H](CO)OC3)c12
u: %
observed-result: -7.92
--
test-smiles: C=CC(=O)N1CCC[C@@H](n2nc(-c3ccc(Oc4ccccc4)cc3)c3c(N)ncnc32)C1
u: %
observed-result: -4.00
--
test-smiles: CC#CC(=O)N1CCC[C@H]1c1nc(-c2ccc(C(=O)Nc3ccccn3)cc2)c2c(N)nccn12
u: %
observed-result: -2.39

Query string: Which measured Percentage inhibition of kinase enzyme activity value corresponds to COc1ccc(F)cc1C(=O)NCc1ccc(-c2nn([C@@H](C)C(F)(F)F)c(N)c2C(N)=O)cc1 ?
Result string: -23.01

* * *

target-system: EPHA4 (Homo sapiens, UniProt P54764)
Construct: purchased Carna Biosciences
Sequence (P54764 20-986): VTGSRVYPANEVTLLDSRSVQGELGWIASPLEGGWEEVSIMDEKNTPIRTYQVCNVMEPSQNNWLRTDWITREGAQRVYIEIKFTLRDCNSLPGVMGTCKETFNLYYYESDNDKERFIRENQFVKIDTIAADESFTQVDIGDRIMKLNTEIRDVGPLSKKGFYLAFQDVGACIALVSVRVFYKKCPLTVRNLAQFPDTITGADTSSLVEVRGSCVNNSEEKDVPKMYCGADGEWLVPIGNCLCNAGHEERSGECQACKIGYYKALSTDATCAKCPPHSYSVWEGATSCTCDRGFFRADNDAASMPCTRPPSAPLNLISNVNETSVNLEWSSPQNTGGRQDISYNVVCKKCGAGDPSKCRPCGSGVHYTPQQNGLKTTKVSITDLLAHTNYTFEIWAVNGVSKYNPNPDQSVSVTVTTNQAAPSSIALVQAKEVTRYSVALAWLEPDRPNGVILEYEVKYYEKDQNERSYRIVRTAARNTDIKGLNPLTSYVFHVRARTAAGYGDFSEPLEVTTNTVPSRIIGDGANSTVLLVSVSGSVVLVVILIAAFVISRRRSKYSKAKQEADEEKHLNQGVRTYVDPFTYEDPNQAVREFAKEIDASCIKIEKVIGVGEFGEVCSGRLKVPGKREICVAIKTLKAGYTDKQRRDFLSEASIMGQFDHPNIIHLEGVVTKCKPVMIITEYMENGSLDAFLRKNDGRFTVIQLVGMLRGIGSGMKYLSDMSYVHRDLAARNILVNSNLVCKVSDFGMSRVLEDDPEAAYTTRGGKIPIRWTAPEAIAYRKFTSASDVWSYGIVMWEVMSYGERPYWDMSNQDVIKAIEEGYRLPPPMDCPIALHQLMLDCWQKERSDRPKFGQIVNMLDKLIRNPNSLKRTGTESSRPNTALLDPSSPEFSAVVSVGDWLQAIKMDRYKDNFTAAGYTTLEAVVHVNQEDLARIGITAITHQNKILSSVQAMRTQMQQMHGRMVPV
assay-info: Kinase panel profiling at 1 µmol/L (mobility shift assay, Carna)
Type: biochemical
conditions: 1 µmol/L of BTK inhibitor
measured-endpoint: Percentage inhibition of kinase enzyme activity (%)
I only need the number, in %, no unit after it.

// known answers, use as guide
test-smiles: O=C(c1ccc(Oc2ccccc2)cc1Cl)c1c[nH]c2ncnc(N[C@@H]3CC[C@@H](CO)OC3)c12
observed-result: 82.34
//
test-smiles: C=CC(=O)N1CCC([C@@H]2CCNc3c(C(N)=O)c(-c4ccc(Oc5ccccc5)cc4)nn32)CC1
observed-result: 0.04
//
test-smiles: CC#CC(=O)N1CCC[C@H]1c1nc(-c2ccc(C(=O)Nc3ccccn3)cc2)c2c(N)nccn12
observed-result: -3.03
//
test-smiles: C=CC(=O)N1CCC[C@@H](n2nc(-c3ccc(Oc4ccccc4)cc3)c3c(N)ncnc32)C1
observed-result: 12.63

Query string: Which measured Percentage inhibition of kinase enzyme activity value corresponds to COc1ccc(F)cc1C(=O)NCc1ccc(-c2nn([C@@H](C)C(F)(F)F)c(N)c2C(N)=O)cc1 ?
Result string: 9.50

* * *

target-system: MST4 (Homo sapiens)
Construct: purchased Carna Biosciences
Sequence (Q9P289 whole entry): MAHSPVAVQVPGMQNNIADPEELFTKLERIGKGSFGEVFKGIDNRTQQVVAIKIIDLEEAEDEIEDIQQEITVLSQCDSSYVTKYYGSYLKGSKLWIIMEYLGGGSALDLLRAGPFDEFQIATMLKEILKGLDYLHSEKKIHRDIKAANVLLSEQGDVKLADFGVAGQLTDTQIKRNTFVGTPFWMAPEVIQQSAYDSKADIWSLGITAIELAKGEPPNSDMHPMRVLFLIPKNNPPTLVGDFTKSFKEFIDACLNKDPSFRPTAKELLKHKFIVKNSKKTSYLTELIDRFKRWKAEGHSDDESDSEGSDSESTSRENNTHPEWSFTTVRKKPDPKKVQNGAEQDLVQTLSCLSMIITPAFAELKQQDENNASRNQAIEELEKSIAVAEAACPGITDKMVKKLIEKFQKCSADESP
assay-info: Kinase panel profiling at 1 µmol/L (mobility shift assay, Carna)
Assay type: biochemical
conditions: 1 µmol/L of BTK inhibitor
Reported Percentage inhibition of kinase enzyme activity values are given for each entry in this list.
Number in %, nothing else.

Some solved entries appear below for comparison.
molecule: C=CC(=O)N1CCC[C@@H](n2nc(-c3ccc(Oc4ccccc4)cc3)c3c(N)ncnc32)C1 [ibrutinib]
u: %
observed-result: 1.46
--
molecule: COc1ccc(F)cc1C(=O)NCc1ccc(-c2nn([C@@H](C)C(F)(F)F)c(N)c2C(N)=O)cc1 [pirtobrutinib]
u: %
observed-result: -7.97
--
molecule: CC#CC(=O)N1CCC[C@H]1c1nc(-c2ccc(C(=O)Nc3ccccn3)cc2)c2c(N)nccn12 [acalabrutinib]
u: %
observed-result: -6.42

# evaluate next
Query string: Please report the recorded Percentage inhibition of kinase enzyme activity for O=C(c1ccc(Oc2ccccc2)cc1Cl)c1c[nH]c2ncnc(N[C@@H]3CC[C@@H](CO)OC3)c12 [nemtabrutinib] .
Result string: 57.51

* * *

Recorded Percentage inhibition of kinase enzyme activity, one value per entry.
target-system: EPHA6 (Homo sapiens)
Construct: purchased Carna Biosciences
Sequence (Q9UF33 23-1036): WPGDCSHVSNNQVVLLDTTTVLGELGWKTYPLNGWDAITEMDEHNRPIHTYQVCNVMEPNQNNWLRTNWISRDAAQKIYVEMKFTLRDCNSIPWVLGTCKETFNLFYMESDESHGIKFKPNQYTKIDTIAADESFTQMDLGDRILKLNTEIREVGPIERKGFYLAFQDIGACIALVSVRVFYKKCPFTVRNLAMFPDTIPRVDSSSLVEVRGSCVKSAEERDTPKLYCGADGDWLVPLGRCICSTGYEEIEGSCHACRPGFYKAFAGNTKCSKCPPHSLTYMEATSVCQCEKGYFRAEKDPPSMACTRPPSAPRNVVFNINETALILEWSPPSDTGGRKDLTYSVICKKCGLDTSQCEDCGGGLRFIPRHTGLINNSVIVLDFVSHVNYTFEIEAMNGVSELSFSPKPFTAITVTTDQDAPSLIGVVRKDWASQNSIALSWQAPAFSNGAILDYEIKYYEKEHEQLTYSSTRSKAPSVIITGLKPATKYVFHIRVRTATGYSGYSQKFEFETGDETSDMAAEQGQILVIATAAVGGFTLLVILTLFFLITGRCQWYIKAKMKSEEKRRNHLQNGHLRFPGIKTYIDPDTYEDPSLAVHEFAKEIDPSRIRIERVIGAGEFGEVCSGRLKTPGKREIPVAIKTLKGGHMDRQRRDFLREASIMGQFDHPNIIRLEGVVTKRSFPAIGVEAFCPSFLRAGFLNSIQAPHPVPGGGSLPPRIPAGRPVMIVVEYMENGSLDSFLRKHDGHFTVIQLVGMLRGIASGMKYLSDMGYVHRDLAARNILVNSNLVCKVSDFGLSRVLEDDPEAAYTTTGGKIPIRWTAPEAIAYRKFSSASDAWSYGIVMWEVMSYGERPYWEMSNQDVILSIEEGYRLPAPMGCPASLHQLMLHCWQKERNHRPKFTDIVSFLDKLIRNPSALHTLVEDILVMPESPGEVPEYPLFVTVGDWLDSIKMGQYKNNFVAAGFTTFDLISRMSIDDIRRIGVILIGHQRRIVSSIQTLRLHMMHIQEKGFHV
assay-info: Kinase panel profiling at 1 µmol/L (mobility shift assay, Carna)
Type: biochemical
conditions: 1 µmol/L of BTK inhibitor
Please respond with the number in % and leave the unit unwritten.

Here is how some compounds turned out for Percentage inhibition of kinase enzyme activity.
compound: C=CC(=O)N1CCC[C@@H](n2nc(-c3ccc(Oc4ccccc4)cc3)c3c(N)ncnc32)C1 [ibrutinib]
observed-result: 92.64
//
compound: C=CC(=O)N1CCC([C@@H]2CCNc3c(C(N)=O)c(-c4ccc(Oc5ccccc5)cc4)nn32)CC1 [zanubrutinib]
observed-result: 0.76
//
compound: COc1ccc(F)cc1C(=O)NCc1ccc(-c2nn([C@@H](C)C(F)(F)F)c(N)c2C(N)=O)cc1 [pirtobrutinib]
observed-result: 6.36
//
compound: O=C(c1ccc(Oc2ccccc2)cc1Cl)c1c[nH]c2ncnc(N[C@@H]3CC[C@@H](CO)OC3)c12 [nemtabrutinib]
observed-result: 49.03

Shifting focus to the compound that follows.
Query string: State the recorded Percentage inhibition of kinase enzyme activity for this entry: CC#CC(=O)N1CCC[C@H]1c1nc(-c2ccc(C(=O)Nc3ccccn3)cc2)c2c(N)nccn12 [acalabrutinib]
Result string: -2.37
